- Test system: Trichophyton mentagrophytes
- experimental-details: Antifungal activity against Trichophyton mentagrophytes IBT 2724 after 7 days by micro broth dilution method
- Format: functional, organism-based
- conditions: IBT 2724, 168 h
measured-property: IC50 (µM)
Numbers only, in µM.

Consider the following illustrative entries.
1. COc1cc(OC)c2c(c1Cl)O[C@]1(C2=O)C(OCc2ccccc2)=C/C(=N\O)C[C@H]1C = 0.3
2. CCCOC1=CC(=O)C[C@@H](C)[C@]12Oc1c(Cl)c(OC)cc(OC)c1C2=O = 0.05
3. CCOc1cc(OC)c(Cl)c2c1C(=O)[C@@]1(O2)C(OC)=CC(=O)C[C@H]1C = 0.29
4. COc1cc(OC)c2c(c1Cl)O[C@]1(C2=O)C(OCc2ccc(CO)cc2)=CC(=O)C[C@H]1C = 1.7
5. COc1cc(OC)c2c(c1Cl)O[C@]1(C2=O)C(OCc2ccccc2)=CC(=O)C[C@H]1C = 0.26
6. CCOC1=CC(=O)C[C@@H](C)[C@]12Oc1c(Cl)c(OC)cc(OC)c1C2=O = 0.25
7. COC1=CC(=O)C[C@@H](C)[C@]12Oc1c(Cl)c(OC)cc(OCc3ccccc3)c1C2=O = 0.25
8. COc1cc(OC)c2c(c1Cl)O[C@]1(C2=O)C(OCc2ccccc2)=C(I)C(=O)C[C@H]1C = 1.1
9. COc1cc(OC)c2c(c1Cl)O[C@]1(C2=O)C(OCc2ccccn2)=CC(=O)C[C@H]1C = 1.3
10. COc1cc(OC)c2c(c1Cl)O[C@]1(C2=O)C(OCc2ccc(C(F)(F)F)cc2)=CC(=O)C[C@H]1C = 0.15

Give IC50 for each of the items listed below.
1. COc1cc(OC)c2c(c1Cl)O[C@]1(C2=O)C(OCc2cccc3ccccc23)=CC(=O)C[C@H]1C
2. CCCOC1=C(I)C(=O)C[C@@H](C)[C@]12Oc1c(Cl)c(OC)cc(OC)c1C2=O
3. COc1cc(OC)c2c(c1Cl)O[C@]1(C2=O)C(OCc2cccnc2)=CC(=O)C[C@H]1C
4. CCOc1cc(OC)c2c(c1Cl)O[C@]1(C2=O)C(OC)=CC(=O)C[C@H]1C
5. COc1cc(OC)c2c(c1Cl)O[C@]1(C2=O)C(Oc2ccccc2)=CC(=O)C[C@H]1C
6. CCCCCOc1cc(OC)c(Cl)c2c1C(=O)[C@@]1(O2)C(OC)=CC(=O)C[C@H]1C

Data returned:
0.25
0.23
0.35
0.062
1.6
0.17

Give IC50 for each of the items listed below.
1. COc1cc(OC)c2c(c1Cl)O[C@]1(C2=O)C(SCc2ccccc2)=CC(=O)C[C@H]1C
2. COc1cc(OC)c2c(c1Cl)O[C@]1(C2=O)C(OC(C)C)=CC(=O)C[C@H]1C
3. COc1cc(OC)c2c(c1Cl)O[C@]1(C2=O)C(OCCc2ccccc2)=CC(=O)C[C@H]1C

Data returned:
1: 0.058; 2: 0.11; 3: 0.28

Give IC50 for each of the items listed below.
1. COC1=C/C(=N\O)C[C@@H](C)[C@]12Oc1c(Cl)c(OC)cc(OC)c1C2=O
2. COc1ccccc1COC1=CC(=O)C[C@@H](C)[C@]12Oc1c(Cl)c(OC)cc(OC)c1C2=O
3. COC1=CC(=O)C[C@@H](C)[C@]12Oc1c(Cl)c(OC)cc(OC)c1C2=O

Data returned:
1. 0.19
2. 0.7
3. 0.058

Give IC50 for each of the items listed below.
1. COc1cc(OC)c2c(c1Cl)O[C@]1(C2=O)C(OCC2CC2)=CC(=O)C[C@H]1C
2. COc1cc(OC)c2c(c1Cl)O[C@@]1(C2=O)[C@H](C)C[C@H](O)C[C@@H]1OC

Data returned:
[0.06, 3]
